System: DHP-I
Format: in vitro ADME
setup.conditions: ratio to imipenem (=1.0); the smaller the value, the higher the stability
Entries and their measured DHP-I susceptibility follow.
I'd appreciate a reply containing only the number, no unit.

// known answers, use as guide
molecule="C[C@@H](O)[C@H]1C(=O)N2C(C(=O)O)=C(S[C@@H]3CN[C@H](COc4ccc(CN)cc4)C3)[C@H](C)[C@H]12.Cl [Example 127]" recorded_measurement=0.15
molecule=C[C@@H](O)[C@H]1C(=O)N2C(C(=O)[O-])=C(S[C@@H]3CN[C@H](CSc4ccccc4)C3)[C@H](C)[C@H]12.[Na+] recorded_measurement=0.15
molecule="C[C@@H](O)[C@H]1C(=O)N2C(C(=O)O)=C(SCCN=CN)C[C@H]12 [Imipenem, monohydrate]" recorded_measurement=1.0
molecule="C[C@@H](O)[C@H]1C(=O)N2C(C(=O)O)=C(S[C@@H]3CN[C@H](CNc4ccc(CN)cc4)C3)[C@H](C)[C@H]12.Cl [Example 121]" recorded_measurement=0.15

# evaluate next
Would you mind telling me what DHP-I susceptibility value was observed for C[C@@H](O)[C@H]1C(=O)N2C(C(=O)O)=C(S[C@@H]3CN[C@H](COc4ccccc4)C3)[C@H](C)[C@H]12 [Example 128] ?
0.16

====

Test system: DHP-I
Assay type: in vitro ADME
setup.conditions: ratio to imipenem (=1.0); the smaller the value, the higher the stability
readout.kind: DHP-I susceptibility

// known answers, use as guide
compound="C=CCN1C[C@@H](SC2=C(C(=O)O)N3C(=O)[C@H]([C@@H](C)O)[C@H]3[C@H]2C)C[C@H]1Cc1cccc2ccccc12 [Example 137]" system_tested=DHP-I readout_kind="DHP-I susceptibility" recorded_measurement="< 0.05"
compound="C[C@@H](O)[C@H]1C(=O)N2C(C(=O)O)=C(S[C@@H]3CN[C@H](C(O)c4ccc(-c5ccc(CN)cc5)cc4)C3)[C@H](C)[C@H]12 (single isomer, unassigned; diastereomer i) [Example 140]" system_tested=DHP-I readout_kind="DHP-I susceptibility" recorded_measurement="< 0.05"

# evaluate next
Give recorded DHP-I susceptibility with DHP-I for the following compound: C[C@@H](O)[C@H]1C(=O)N2C(C(=O)O)=C(S[C@@H]3CN[C@H](Cc4ccc(CN)cc4)C3)[C@H](C)[C@H]12 [Example 131]
< 0.05

Source: patent US5707987A
